Assay: Phase 1 crossover study: rosuvastatin plasma pharmacokinetics
Format: in vivo, human
Conditions: human, plasma, oral, 10 mg, rosuvastatin 10 mg alone, fasted, n = 9; read-out: Rosuvastatin t1/2 lambda z, geometric mean (%CV) (converted)
METRIC NAME: half-life (h)
Numbers only, in h.

Return reported half-life; argument: CC(C)c1nc(N(C)S(C)(=O)=O)nc(-c2ccc(F)cc2)c1/C=C/[C@@H](O)C[C@@H](O)CC(=O)O [Rosuvastatin, rosuvastatin]
14.7

* * *

Assay: Phase 1 crossover study: AZD5718 plasma pharmacokinetics
Type: in vivo, human
Details: human, plasma, oral, AZD5718 t1/2 lambda z, arithmetic mean (SD), 200 mg tablet plus rosuvastatin 10 mg, fasted, n = 12
METRIC NAME: half-life (min)
Answers are plain numbers, in min.

Return reported half-life; argument: Cc1cc(-c2ccc(C(=O)[C@@H]3CCCC[C@H]3C(=O)Nc3cnn4c3C(=O)NCC4)cc2)n[nH]1 [AZD5718]
900
